Species on record: Homo sapiens
Assay: Selectivity ratio of Ki for Homo sapiens (human) recombinant GABAA alpha1beta3gamma2 receptor to Ki for Homo sapiens (human) recombinant GABAA alpha5beta3gamma2 receptor
So basically: Ratio Ki at 10 or higher? That is True. Lower than 10? That is False.

>>> label_class("CCOC(=O)c1ncn2c1[C@@H]1CCCN1C(=O)c1cc(Br)ccc1-2")
"True"
>>> label_class("CC(C)(C)OC(=O)c1ncn2c1[C@@H]1CCCN1C(=O)c1cc(-c3ccco3)ccc1-2")
"False"
>>> label_class("CCOC(=O)c1ncn2c1[C@@H]1CCCN1C(=O)c1cc(C#C[Si](C)(C)C)ccc1-2")
"True"
>>> label_class("CCOC(=O)c1ncn2c1[C@@H]1CCCN1C(=O)c1cc(OC)ccc1-2")
"True"
>>> label_class("C=Cc1ccc2c(c1)C(=O)N1CCC[C@H]1c1c(C(=O)OCC(F)(F)F)ncn1-2")
"True"
>>> label_class("CC(C)(C)OC(=O)c1ncn2c1[C@@H]1CCCN1C(=O)c1cc(-c3ccccc3)ccc1-2")
"False"
>>> label_class("O=C(OCC(F)(F)F)c1ncn2c1[C@@H]1CCCN1C(=O)c1ccccc1-2")
"False"
>>> label_class("C=Cc1ccc2c(c1)C(=O)N1CCC[C@H]1c1c(C(=O)OC(C)(C)C)ncn1-2")
"True"
>>> label_class("C#Cc1ccc2c(c1)C(=O)N1CCC[C@H]1c1c(C(=O)OCC(F)(F)F)ncn1-2")
"True"

* * *

Organism: Homo sapiens
Assay: Selectivity ratio of Ki for Homo sapiens (human) recombinant GABAA alpha1beta3gamma2 receptor to Ki for Homo sapiens (human) recombinant GABAA alpha5beta3gamma2 receptor
observed-property: Ratio Ki

>>> recorded_measurement("C#Cc1ccc2c(c1)C(=O)N1CCC[C@H]1c1c(C(=O)OCC)ncn1-2")
45
>>> recorded_measurement("CC(C)(C)OC(=O)c1ncn2c1[C@@H]1CCCN1C(=O)c1cc(Br)ccc1-2")
37.5
>>> recorded_measurement("CC(C)(C)OC(=O)c1ncn2c1[C@@H]1CCCN1C(=O)c1cc(-c3cccs3)ccc1-2")
1.3
>>> recorded_measurement("O=C(OCC(F)(F)F)c1ncn2c1[C@@H]1CCCN1C(=O)c1cc(-c3ccco3)ccc1-2")
0.71

* * *

pKi for assorted compounds
Biological target: GABA-A receptor; alpha-1/beta-3/gamma-2 (Homo sapiens, UniProt P14867+P18507+P28472)
Sequence (P14867 whole entry): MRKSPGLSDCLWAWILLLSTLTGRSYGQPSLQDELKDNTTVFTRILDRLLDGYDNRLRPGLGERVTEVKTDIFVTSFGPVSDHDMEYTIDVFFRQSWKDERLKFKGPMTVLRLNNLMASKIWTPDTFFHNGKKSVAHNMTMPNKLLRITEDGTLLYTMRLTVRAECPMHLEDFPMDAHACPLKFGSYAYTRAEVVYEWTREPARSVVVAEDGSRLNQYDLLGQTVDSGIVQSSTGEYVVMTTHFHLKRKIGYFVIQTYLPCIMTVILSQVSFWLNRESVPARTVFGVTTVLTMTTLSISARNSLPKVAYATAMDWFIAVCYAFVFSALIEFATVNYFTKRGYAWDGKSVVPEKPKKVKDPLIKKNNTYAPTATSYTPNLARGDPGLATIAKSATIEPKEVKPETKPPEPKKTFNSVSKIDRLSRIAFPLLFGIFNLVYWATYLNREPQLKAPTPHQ
Sequence (P18507 whole entry): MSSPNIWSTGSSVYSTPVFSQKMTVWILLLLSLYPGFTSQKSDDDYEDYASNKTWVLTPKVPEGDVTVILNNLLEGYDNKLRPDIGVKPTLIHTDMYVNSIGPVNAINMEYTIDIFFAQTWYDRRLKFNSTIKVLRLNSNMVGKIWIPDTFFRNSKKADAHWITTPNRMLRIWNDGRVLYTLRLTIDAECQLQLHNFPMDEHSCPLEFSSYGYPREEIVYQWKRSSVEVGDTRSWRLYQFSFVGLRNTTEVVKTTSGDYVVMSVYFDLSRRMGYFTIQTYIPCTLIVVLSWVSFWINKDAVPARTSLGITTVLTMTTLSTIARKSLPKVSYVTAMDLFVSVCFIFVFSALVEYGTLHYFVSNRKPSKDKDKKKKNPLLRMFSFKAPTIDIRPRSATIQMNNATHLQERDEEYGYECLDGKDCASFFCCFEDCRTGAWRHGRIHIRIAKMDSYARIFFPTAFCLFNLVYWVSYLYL
Sequence (P28472 whole entry): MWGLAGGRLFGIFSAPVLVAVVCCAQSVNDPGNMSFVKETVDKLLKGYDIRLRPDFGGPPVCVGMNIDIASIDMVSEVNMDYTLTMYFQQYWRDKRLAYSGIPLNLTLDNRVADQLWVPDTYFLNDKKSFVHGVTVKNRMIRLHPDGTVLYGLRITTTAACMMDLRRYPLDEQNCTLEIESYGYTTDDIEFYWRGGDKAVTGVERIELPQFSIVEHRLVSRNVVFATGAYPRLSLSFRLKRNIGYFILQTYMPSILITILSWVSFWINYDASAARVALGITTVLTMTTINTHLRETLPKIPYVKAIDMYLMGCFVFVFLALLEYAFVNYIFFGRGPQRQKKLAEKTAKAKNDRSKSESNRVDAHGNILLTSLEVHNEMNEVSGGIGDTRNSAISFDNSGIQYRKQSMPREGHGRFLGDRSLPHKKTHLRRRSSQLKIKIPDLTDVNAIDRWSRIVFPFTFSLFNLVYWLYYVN
Experiment: Displacement of [3H]-Ro 15-1788 from Homo sapiens (human) recombinant GABAA alpha1beta3gamma2 receptor expressed in Ltk- cells after 1 hr by liquid scintillation counting
pKi: −log10 of the molar value.
observed-property: pKi

>>> recorded_measurement("C=Cc1ccc2c(c1)C(=O)N1CCC[C@H]1c1c(C(=O)OC(C)(C)C)ncn1-2")
7.30
>>> recorded_measurement("O=C(OCC(F)(F)F)c1ncn2c1[C@@H]1CCCN1C(=O)c1cc(-c3ccccc3)ccc1-2")
6.85
>>> recorded_measurement("O=C(OCC(F)(F)F)c1ncn2c1[C@@H]1CCCN1C(=O)c1cc(-c3ccco3)ccc1-2")
8.15
>>> recorded_measurement("CC(C)(C)OC(=O)c1ncn2c1[C@@H]1CCCN1C(=O)c1cc(-c3ccccc3)ccc1-2")
7.55
>>> recorded_measurement("CC(C)(C)OC(=O)c1ncn2c1[C@@H]1CCCN1C(=O)c1cc(-c3cccs3)ccc1-2")
7.80
>>> recorded_measurement("CC(C)(C)OC(=O)c1ncn2c1[C@@H]1CCCN1C(=O)c1cc(Br)ccc1-2")
6.82
>>> recorded_measurement("O=C(OCC(F)(F)F)c1ncn2c1[C@@H]1CCCN1C(=O)c1ccccc1-2")
7.47
>>> recorded_measurement("CC(C)(C)OC(=O)c1ncn2c1[C@@H]1CCCN1C(=O)c1cc(-c3ccco3)ccc1-2")
8.74
>>> recorded_measurement("C=Cc1ccc2c(c1)C(=O)N1CCC[C@H]1c1c(C(=O)OCC(F)(F)F)ncn1-2")
7.03
>>> recorded_measurement("C#Cc1ccc2c(c1)C(=O)N1CCC[C@H]1c1c(C(=O)OCC(F)(F)F)ncn1-2")
6.52
